Recorded MIC A Fum. 210 values for a group of compounds are listed next.
# System: Aspergillus fumigatus AF210
# Experiment Description: MIC, YAG medium, Aspergillus fumigatus AF210
# Type: cell-based
# Protocol Conditions: YAG medium
Just the number please, in µg/mL, no unit attached.

COc1ccc(NC(=O)C(=NOCCCC(=O)O)c2c(-c3ccccc3)cc3ccccn23)cc1 (mixture of isomers) [Example 297] ... 12.5

I would be grateful if you could share the reported MIC A Fum. 210 for Cc1c(NC(=O)C(=O)c2c(-c3ccccc3)cc3ccccn23)c(=O)n(-c2ccccc2)n1C [Example 303] .
50

Lookup CON=C(C)c1ccc(NC(=O)C(=O)c2c(-c3ccccc3)cc3ccccn23)cc1 (mixture of isomers) [Example 243]
0.12

Another compound to look at: COc1ccc(NC(=O)C(=NOCCN(C)C)c2c(-c3ccccc3)cc3ccccn23)cc1 (mixture of isomers) [Example 295]
50

Record: CON=C(C(=O)Nc1ccc(OC)cc1)c1c(-c2ccccc2)cc2ccccn12 (mixture of isomers) [Example 298]
0.8

How about this compound: CC(=NO)c1ccc(NC(=O)C(=O)c2c(-c3ccccc3)cc3ccccn23)cc1 (mixture of isomers) [Example 250]
0.8

###

# Tested on: Aspergillus flavus
# Experiment Description: MIC, YAG medium, Aspergillus flavus
# Format: cell-based
# Protocol Conditions: YAG medium
Quick list: MIC A Flavus 01 per entry.

Some solved entries appear below for comparison.
CON=C(C)c1ccc(NC(=O)C(=O)c2c(-c3ccccc3)cc3ccccn23)cc1 (mixture of isomers) ... 0.015 µg/mL
COc1ccc(NC(=O)C(=NOCCCC(=O)O)c2c(-c3ccccc3)cc3ccccn23)cc1 (mixture of isomers) ... 0.4 µg/mL
CON=C(C(=O)Nc1ccc(OC)cc1)c1c(-c2ccccc2)cc2ccccn12 (mixture of isomers) ... 0.1 µg/mL

State its MIC A Flavus 01 on Aspergillus flavus: CC(=NO)c1ccc(NC(=O)C(=O)c2c(-c3ccccc3)cc3ccccn23)cc1 (mixture of isomers)
0.1 µg/mL

Likewise for `COc1ccc(NC(=O)C(=O)c2c(-c3ccccc3)cc3c(C)cccn23)cn1` ?
>50 µg/mL

And for COc1ccc(NC(=O)C(=NOCCN(C)C)c2c(-c3ccccc3)cc3ccccn23)cc1 (mixture of isomers) ?
12.5 µg/mL

Moving on to COc1ccc(NC(=O)C(=NOCCCN(C)C)c2c(-c3ccccc3)cc3ccccn23)cc1 (mixture of isomers)
12.5 µg/mL

###

# Test system: A Terreus 49
# Experiment Description: MIC, YAG medium, A Terreus 49
# Assay type: cell-based, Aspergillus terreus
# Protocol Conditions: Aspergillus terreus; YAG medium; read-out: MIC A Terreus 49
MIC for assorted compounds
Answers without a unit are incomplete; give the number and then its unit.

COc1ccccc1-c1cc2ccccn2c1C(=O)C(=O)Nc1ccc(F)cc1F ... 0.2 µg/mL
CC1(c2ccc(NC(=O)C(=O)c3c(-c4ccccc4)cc4ccccn34)cc2)OCCO1 ... 0.008 µg/mL
COc1ccc(NC(=O)C(=O)c2c(-c3ccc(F)cc3)cc3ccccn23)c(OC)c1 ... 0.031 µg/mL

Next compound, please.
Missing value: MIC, A Terreus 49, entry `O=C(Nc1ccccc1F)C(=O)c1c(-c2ccccc2)cc2ccccn12` . Fill in?
0.015 µg/mL

Reference for the values: patent US8486962B2
